# System: Streptococcus salivarius
# EXPERIMENT_DESCRIPTION: growth AUC relative to DMSO control (median of replicates) (fraction); higher = more growth (less inhibition), active = hit call of the paper
# EXPERIMENTAL_CONDITIONS: 20 µM; 24 h
Each entry gets no if its growth AUC stays under 1, and yes if its growth AUC is 1 or above.

SAMPLE_SMILES: Nc1ccc(Cc2ccc(N)c(Cl)c2)cc1Cl
CLASS: yes

From here, focus on the item given below.
Record CS(=O)(=O)NC(=O)c1cc(Oc2ccc(C(F)(F)F)cc2Cl)ccc1[N+](=O)[O-] ; criterion: growth AUC no lower than 1. Met?
no
